Provenance of the data: paper PMC11372839

Assay: Solubility in PBS
Conditions: volume of PBS (pH 7.4) to dissolve 1 g, 25 °C

compound	Solubility in PBS, PBS [ml]
CCCCCC[n+]1cccc(C(N)=O)c1.O=C([O-])c1ccccc1O	< 1 mL
CCCC[n+]1cccc(C(N)=O)c1.O=C([O-])c1ccccc1O	< 1 mL
NC(=O)c1cccnc1.O=C(O)c1ccccc1O [[NA][SAL], reference compound]	30 to 100 mL
CCCCCCCCCC[n+]1cccc(C(N)=O)c1.O=C([O-])c1ccccc1O	100 to 1000 mL
CC[n+]1cccc(C(N)=O)c1.O=C([O-])c1ccccc1O	< 1 mL
CCCCCCCC[n+]1cccc(C(N)=O)c1.O=C([O-])c1ccccc1O	10 to 30 mL
